- target_system: T1, human TL1A extracellular domain with N-terminal HIS and FLAG tag (human) (UniProt O95150)
- T1 sequence: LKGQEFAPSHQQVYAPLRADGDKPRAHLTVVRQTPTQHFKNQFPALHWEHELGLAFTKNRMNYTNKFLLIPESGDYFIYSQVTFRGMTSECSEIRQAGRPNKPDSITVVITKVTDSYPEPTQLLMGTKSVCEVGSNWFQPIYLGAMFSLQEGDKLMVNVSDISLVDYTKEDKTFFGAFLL
- test_details: cell-based or functional assay
readout_kind: Antibody IC50, TL1A induced caspase potency assay in TF-1 cells (µg/mL)

- binder: "320-313 (antibody, human IgG1, name in Kabat numbering, V domains shown, human IgG1, lambda) VH: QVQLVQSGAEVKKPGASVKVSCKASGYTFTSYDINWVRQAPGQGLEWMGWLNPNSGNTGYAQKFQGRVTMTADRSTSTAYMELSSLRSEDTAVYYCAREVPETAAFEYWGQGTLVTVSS VL: QSVLTQPPSVSGAPGQRVTISCTSSSSDIGAGLGVHWYQQLPGTAPKLLIEGYYNRPSGVPDRFSGSKSGTSASLTITGLLPEDEGDYYCHSYDGTLSALFGGGTKLTVLG"
  recorded_value: 0.02
- binder: "320-464 (antibody, human IgG1, name in Kabat numbering, V domains shown, human IgG1, lambda) VH: QVQLVQSGAEVKKPGASVKVSCKASGYTFTSYDISWVRQAPGQGLEWMGWLNPNSGNTGYAQKFQGRVTMTADRSTSTAYMELSSLRSEDTAVYYCAREVPETAAFEYWGQGTLVTVSS VL: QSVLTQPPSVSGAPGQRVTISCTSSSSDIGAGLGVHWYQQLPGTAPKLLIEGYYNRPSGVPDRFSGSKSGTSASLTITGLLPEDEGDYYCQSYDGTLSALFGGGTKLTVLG"
  recorded_value: 0.03
- binder: "320-328 (antibody, human IgG1, name in Kabat numbering, V domains shown, human IgG1, lambda) VH: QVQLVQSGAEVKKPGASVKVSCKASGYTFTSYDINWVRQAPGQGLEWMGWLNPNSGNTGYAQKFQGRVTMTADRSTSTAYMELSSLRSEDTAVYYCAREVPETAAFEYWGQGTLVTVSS VL: QSVLTQPPSVSGAPGQRVTISCTSSSSDIGAGLGVHWYQQLPGTAPKLLIEGYYNRPSGVPDRFSGSKSGTSASLTITGLLPEDEGDYYCQSHDGTLSALFGGGTKLTVLG"
  recorded_value: 0.02
